Listed next: entries and their corresponding abundance fitness.
B1: Transcription intermediary factor 1-beta, residues 620 to 671; numbered along this chain, Q13263 (parent)
chain: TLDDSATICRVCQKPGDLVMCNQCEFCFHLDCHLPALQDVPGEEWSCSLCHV

# Variants of: B1
# assay protocol: abundance fitness (aPCA) (normalised: wild type 0, dead -1); higher = more abundant; growth selection in yeast, the domain comes from the species named
# condition context: Homo sapiens
Answer field: number only, no words.

| variant code | abundance fitness |
| --- | --- |
| L34P | 0.036 |
| C9A | -0.861 |
| E25I | -0.298 |
| L49M | 0 |
| T7C | -0.451 |

q: Please indicate abundance fitness recorded for Q13T
a: -0.085

q: Please report abundance fitness for the following variant: V11Q
a: -0.136

q: Determine from records and report abundance fitness for L37C
a: -0.021

q: Give reported abundance fitness value for D17K
a: -0.018

q: Quickly give me recorded abundance fitness for V40E
a: -0.403

q: Specify measured abundance fitness for G16H .
a: -0.214

q: Assign abundance fitness to the following record: V40L
a: -0.221

q: Assign abundance fitness to the following record: V19N
a: -0.556

q: Write down abundance fitness measured for item F28M
a: -0.318

q: Note abundance fitness for the variant shown: V11H
a: -0.659

q: Check the records and state abundance fitness for C32A
a: -0.545
